Measured values drawn from the supplement of paper PMC12042874 for this set.

test: amyloid nucleation score (Sup35N fusion, yeast selection) (log enrichment); library NNK2; higher = more nucleation; inactive = no reads after selection;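 also: zero at mode of non-aggregating sequences after 7 days selection at 30°C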
quantityMeasured: amyloid nucleation score
Please reply with the number alone, leaving off any unit.

Example cases with answers are listed next.
{"substance": "WCSSKSLADSGRVMGANVYI", "amyloid nucleation score": -1.02}
{"substance": "RIGTFWRGQDKLDVFKYGVV", "amyloid nucleation score": -0.236}
{"substance": "YLRDVYSSIFAPGMRYPQTR", "amyloid nucleation score": 2.22}
{"substance": "ANLRNSW", "amyloid nucleation score": -0.82}
{"substance": "TFYYTAECWAWRNMQESSHT", "amyloid nucleation score": 0.054}

We next turn to a different substance, shown below.
[in] Read off the recorded amyloid nucleation score for TRNSFRSSLWVLRGGCV
[out] -0.523
